Values from patent US20210380630A1

Catalogue of molecules with associated IC50
- Study system: aromatase (human placental microsomes) (Homo sapiens, UniProt P11511)
- Construct: protein (2 mg) from human placental microsomes; from tissue; host or cells: human placenta (microsomal fraction)
- Sequence (P11511 1-503): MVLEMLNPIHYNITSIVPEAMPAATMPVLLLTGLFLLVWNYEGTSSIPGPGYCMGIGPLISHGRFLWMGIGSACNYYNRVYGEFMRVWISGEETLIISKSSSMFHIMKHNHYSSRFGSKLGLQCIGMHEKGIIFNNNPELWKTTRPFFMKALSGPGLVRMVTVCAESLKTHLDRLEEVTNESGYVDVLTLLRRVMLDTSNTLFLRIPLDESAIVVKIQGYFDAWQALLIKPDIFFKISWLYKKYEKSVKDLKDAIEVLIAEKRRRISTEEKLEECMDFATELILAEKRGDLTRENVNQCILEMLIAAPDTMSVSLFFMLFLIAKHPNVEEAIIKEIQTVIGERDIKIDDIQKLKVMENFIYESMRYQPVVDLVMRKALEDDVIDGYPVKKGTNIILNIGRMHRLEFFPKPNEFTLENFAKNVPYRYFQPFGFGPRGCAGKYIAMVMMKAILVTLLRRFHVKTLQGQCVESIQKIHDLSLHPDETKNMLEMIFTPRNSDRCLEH
- Test method notes: human placental aromatase assay
- Type: biochemical
Parameter measured: IC50

Molecule	Parameter measured	Endpoint result
C[C@]12C=CC(=O)C(O)=C1CC[C@@H]1[C@@H]2[C@H](O)C[C@]2(C)C(=O)CC[C@@H]12	IC50	34300 nM
C[C@]12CC[C@H]3[C@@H]([C@H](O)C[C@@]4(O)[C@H](O)C(=O)CC[C@]34C)[C@@H]1CCC2=O [Compound 2, 4α,5α,7α-Trihydroxyandrostane-3,17-dione]	IC50	5230 nM
C[C@]12CCC(=O)C(O)=C1CC[C@@H]1[C@@H]2CC[C@]2(C)C(=O)CC[C@@H]12	IC50	335 nM
C[C@]12CC[C@H]3[C@@H]([C@@H](O)C[C@@]4(O)C(=O)[C@@H](O)CC[C@]34C)[C@@H]1CCC2=O [Compound 4, 3β,5α,7β-Trihydroxyandrostane-4,17-dione]	IC50	386 nM
